- Target system: Recombinant human Bcl-2 protein (Homo sapiens (Human), UniProt P10415)
- Experiment notes: Bcl-2 TR-FRET Assay
- Assay type: binding
- Protocol conditions: wild type Bcl-2; unit inferred; read-out: Bcl-2 WT
The threshold is 0.07 nM. Values of IC50 beneath it are tagged YES; values meeting or exceeding it are tagged NO.

# Compound, Answer label
measured = [
    ("COc1ccc(CN2CCN(C3CC4(CCN(c5ccc(C(=O)NS(=O)(=O)c6ccc(NC[C@H]7CC[C@](C)(O)CC7)c([N+](=O)[O-])c6)c(Oc6cc7c(F)c[nH]c7nc6C)c5)CC4)C3)[C@H](c3ccccc3C(C)C)C2)cc1 [Example 125]", "NO"),
    ("[2H]C([2H])([2H])Oc1cc(CN2CCN(C3CC4(C3)CN(c3ccc(C(=O)NS(=O)(=O)c5ccc(NC[C@H]6CC[C@](C)(O)CC6)c([N+](=O)[O-])c5)c(Oc5cnc6[nH]cc(F)c6c5)c3)C4)[C@H](c3ccccc3C(C)C)C2)cc2ccoc12 [Example 322]", "NO"),
    ("CC(C)c1ccccc1C1CN(Cc2ccccc2F)CCN1C1CC2(CCN(c3ccc(C(=O)NS(=O)(=O)c4ccc(NC[C@H]5CC[C@](C)(O)CC5)c([N+](=O)[O-])c4)c(Oc4cnc5[nH]ccc5c4)c3)CC2)C1 (some centres unmarked) [Example 46]", "NO"),
    ("COc1ccc(CN2CCN(C3CC4(CCN(c5ccc(C(=O)NS(=O)(=O)c6ccc(NC[C@H]7CC[C@](C)(O)CC7)c([N+](=O)[O-])c6)c(Oc6cnc7[nH]ccc7c6)c5)CC4)C3)[C@H](c3ccccc3C(C)C)C2)cc1 [Example 19a]", "YES"),
    ("COc1cc(CN2CCN(C3CC4(CCN(c5ccc(C(=O)NS(=O)(=O)c6ccc(NC[C@H]7CC[C@](C)(O)CC7)c([N+](=O)[O-])c6)c(Oc6cnc7[nH]ccc7c6)c5)CC4)C3)C(c3ccccc3C(C)C)C2)cnc1OC (some centres unmarked) [Example 176]", "YES"),
    ("COc1cc(CN2CCN(C3CC4(C3)CN(c3ccc(C(=O)NS(=O)(=O)c5ccc(NC[C@H]6CC[C@](C)(O)CC6)c([N+](=O)[O-])c5)c(Oc5cnc6[nH]cc(F)c6c5)c3)C4)[C@H](c3ccccc3C(C)C)C2)cc2c1OC(C)(C)CC2 [Example 337]", "NO"),
    ("[2H]C([2H])([2H])Oc1ccc(CN2CCN(C3CC4(C3)CN(c3ccc(C(=O)NS(=O)(=O)c5ccc(NC[C@H]6CC[C@](C)(O)CC6)c([N+](=O)[O-])c5)c(Oc5cnc6[nH]ccc6c5)c3)C4)[C@H](c3ccccc3C(C)C)C2)cc1OC([2H])([2H])[2H] [Example 243]", "YES"),
]

====

- Target system: recombinant human Bcl-2-G101V protein (Homo sapiens (Human), UniProt P10415, G101V)
- Experiment notes: Bcl-2-G101V TR-FRET Assay
- Type: binding
- Protocol conditions: Bcl-2 G101V mutant, TR-FRET; read-out: Biochemical assay (IC50, nM) Bcl-2 G101V
IC50 class ranges: low value (below 0.8 nM), medium value (0.8 nM to below 2 nM), high value (2 nM or more)

# Molecule, Answer label
rows = [
    ("COc1cc(CN2CCN(C3CC4(C3)CN(c3ccc(C(=O)NS(=O)(=O)c5ccc(NC[C@H]6CC[C@](C)(O)CC6)c([N+](=O)[O-])c5)c(Oc5cnc6[nH]cc(F)c6c5)c3)C4)[C@H](c3ccccc3C(C)C)C2)cc2c1OC(C)(C)CC2", "low value"),
    ("[2H]C([2H])([2H])Oc1cc(CN2CCN(C3CC4(C3)CN(c3ccc(C(=O)NS(=O)(=O)c5ccc(NC[C@H]6CC[C@](C)(O)CC6)c([N+](=O)[O-])c5)c(Oc5cnc6[nH]cc(F)c6c5)c3)C4)[C@H](c3ccccc3C(C)C)C2)cc2c1OCC2(C)C", "low value"),
    ("CC(C)c1ccccc1[C@@H]1CN(C2CC2)CCN1C1CC2(CCN(c3ccc(C(=O)NS(=O)(=O)c4ccc(NC[C@H]5CC[C@](C)(O)CC5)c([N+](=O)[O-])c4)c(Oc4cnc5[nH]ccc5c4)c3)CC2)C1 (single isomer, unassigned)", "medium value"),
    ("COc1ccc(CN2CCN(C3CC4(CCN(c5ccc(C(=O)NS(=O)(=O)c6ccc(NC[C@H]7CC[C@](C)(O)CC7)c([N+](=O)[O-])c6)c(Oc6cnc7[nH]ccc7c6)c5)CC4)C3)C(c3ccccc3C(C)C)C2)cc1C (stereo partly shown)", "medium value"),
    ("CC(C)c1ccccc1C1CN(C(C)c2ccccc2)CCN1C1CC2(CCN(c3ccc(C(=O)NS(=O)(=O)c4ccc(NC[C@H]5CC[C@](C)(O)CC5)c([N+](=O)[O-])c4)c(Oc4cnc5[nH]ccc5c4)c3)CC2)C1 (single isomer, unassigned) [Example 24b]", "medium value"),
    ("COc1ccc(CN2CCN(C3CC4(CCN(c5ccc(C(=O)NS(=O)(=O)c6ccc(NC[C@H]7CC[C@](C)(O)CC7)c([N+](=O)[O-])c6)c(Oc6cnc7[nH]ccc7c6)c5)CC4)C3)C(c3ccccc3C)C2)cc1 (stereo partly shown)", "medium value"),
    ("COc1cc(CN2CCN(C3CC4(CCN(c5ccc(C(=O)NS(=O)(=O)c6ccc(NC[C@H]7CC[C@](C)(O)CC7)c([N+](=O)[O-])c6)c(Oc6cnc7[nH]cc(F)c7c6)c5)CC4)C3)[C@H](c3ccccc3C(C)C)C2)ccc1C1CC1", "medium value"),
    ("COc1cc(CN2CCN(C3CC4(CCN(c5ccc(C(=O)NS(=O)(=O)c6ccc(NC[C@H]7CC[C@](C)(O)CC7)c([N+](=O)[O-])c6)c(Oc6cnc7[nH]ccc7c6)c5)CC4)C3)[C@H](c3ccccc3C(C)C)C2)ccc1C(C)C", "high value"),
    ("[2H]C([2H])([2H])Oc1ccc(CN2CCN(C3CC4(CCN(c5ccc(C(=O)NS(=O)(=O)c6ccc(NC[C@H]7CC[C@](C)(O)CC7)c([N+](=O)[O-])c6)c(Oc6cnc7[nH]cc(Cl)c7c6)c5)CC4)C3)[C@H](c3ccccc3C(C)C)C2)cc1OC([2H])([2H])[2H]", "low value"),
    ("COc1ccc(CN2CCN(C3CC4(CCN(c5ccc(C(=O)NS(=O)(=O)c6ccc(NC[C@H]7CC[C@](C)(O)CC7)c([N+](=O)[O-])c6)c(Oc6cnc7[nH]ccc7c6)c5)CC4)C3)C(c3ccccc3C(C)C)C2)cc1Br (stereo partly shown)", "high value"),
    ("CCc1ccc(CN2CCN(C3CC4(CCN(c5ccc(C(=O)NS(=O)(=O)c6ccc(NC[C@H]7CC[C@](C)(O)CC7)c([N+](=O)[O-])c6)c(Oc6cnc7[nH]ccc7c6)c5)CC4)C3)C(c3ccccc3C(C)C)C2)cc1 (stereo partly shown)", "high value"),
    ("COc1cccc(CN2CCN(C3CC4(CCN(c5ccc(C(=O)NS(=O)(=O)c6ccc(NC[C@H]7CC[C@](C)(O)CC7)c([N+](=O)[O-])c6)c(Oc6cnc7[nH]ccc7c6)c5)CC4)C3)C(c3ccccc3C(C)C)C2)c1 (stereo partly shown)", "medium value"),
    ("COc1cc(CN2CCN(C3CC4(C3)CN(c3ccc(C(=O)NS(=O)(=O)c5ccc(NC[C@H]6CC[C@](C)(O)CC6)c([N+](=O)[O-])c5)c(Oc5cnc6[nH]cc(F)c6c5)c3)C4)[C@H](c3ccccc3C(C)C)C2)ccc1OC1CC1", "low value"),
    ("COc1nn(C)cc1CN1CCN(C2CC3(CCN(c4ccc(C(=O)NS(=O)(=O)c5ccc(NC[C@H]6CC[C@](C)(O)CC6)c([N+](=O)[O-])c5)c(Oc5cnc6[nH]ccc6c5)c4)CC3)C2)C(c2ccccc2C(C)C)C1 (stereo partly shown)", "low value"),
    ("COc1cc(CN2CCN(C3CC4(CCN(c5ccc(C(=O)NS(=O)(=O)c6ccc(NC[C@H]7CC[C@](C)(O)CC7)c([N+](=O)[O-])c6)c(Oc6cnc7[nH]ccc7c6)c5)CC4)C3)[C@H](c3ccccc3C(C)C)C2)ccc1C1CC1", "medium value"),
]

Source: patent US20240376097A1
